Where do the numbers come from? From paper PMC10726135.

Known binding signal of a selection of sequences
Biological target: HNF4alpha8 (COS-7 nuclear extract) (Homo sapiens, UniProt P41235-5 1-452)
Sequence: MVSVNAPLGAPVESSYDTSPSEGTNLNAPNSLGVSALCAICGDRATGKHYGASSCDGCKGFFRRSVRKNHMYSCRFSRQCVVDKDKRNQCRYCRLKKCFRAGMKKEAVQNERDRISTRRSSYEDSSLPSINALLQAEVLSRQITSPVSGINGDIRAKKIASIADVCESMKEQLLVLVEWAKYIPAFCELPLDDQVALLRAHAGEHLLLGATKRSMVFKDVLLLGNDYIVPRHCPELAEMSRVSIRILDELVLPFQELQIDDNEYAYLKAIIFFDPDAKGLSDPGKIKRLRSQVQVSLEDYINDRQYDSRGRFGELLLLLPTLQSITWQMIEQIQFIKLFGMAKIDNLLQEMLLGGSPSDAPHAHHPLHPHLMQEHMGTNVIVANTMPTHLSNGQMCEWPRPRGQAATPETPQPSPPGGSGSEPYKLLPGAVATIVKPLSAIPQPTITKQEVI
Test: protein-binding microarray; COS-7 nuclear extract on double-stranded Agilent 4x180k PBM; binding buffer, salt, pH and temperature not given in the material; high values mean tight binding
Details: chain copies: 2; label: 3' end of strand 1 on the slide; dsDNA, one strand shown
Over roughly 18,000 sequences, “log2 normalized intensity” has its median near 0.36; the highest 2% begin near 7.3. The full list was thinned out, with the highest values kept by preference.
readoutName: binding signal

1. TTCCCTACCCCCTGGGAGTAACCTGCTTGTGCCTAGGGAGATTAGAGTATCGGTCGA :: 2.25 log2 normalized intensity
2. AACACAGGTGACCTTTGCTCCGGTTCCCAAGCCTAGGGAGATTAGAGTATCGGTCGA :: 7.12 log2 normalized intensity
3. CCCACCCCCACGCCCCCCAGCGGAAGTCCAGCCTAGGGAGATTAGAGTATCGGTCGA :: 6.82 log2 normalized intensity
4. ATGCACGTGCTCCAGGAGGGGAGGAGGGTCGCCTAGGGAGATTAGAGTATCGGTCGA :: 3.4 log2 normalized intensity
5. TGATCTTTGAAACATAACAGCAACAACACAGCCTAGGGAGATTAGAGTATCGGTCGA :: 0.241 log2 normalized intensity
6. GAGGTTCCTGGAACTCTGACCTTTGCCCCCGCCTAGGGAGATTAGAGTATCGGTCGA :: 10.3 log2 normalized intensity
7. TCCTGGAACTCTGACCTTTGCCCCCAGCCTGCCTAGGGAGATTAGAGTATCGGTCGA :: 10.1 log2 normalized intensity
8. GACGGGAGGAAAACTGGGCAAAGGTCAGGAGCCTAGGGAGATTAGAGTATCGGTCGA :: 5.58 log2 normalized intensity
9. TGTTTTTTGCCCTTTGTACCCACACACACCGCCTAGGGAGATTAGAGTATCGGTCGA :: 7.36 log2 normalized intensity
10. GTGTGGGACTTTGGTCTGCTGAGTCTCATGGCCTAGGGAGATTAGAGTATCGGTCGA :: 2.52 log2 normalized intensity
11. AACTGACACTTGTTTGAATTGTGATAATAAGCCTAGGGAGATTAGAGTATCGGTCGA :: 1.04 log2 normalized intensity
12. CCCAGGGACTTTGGCCTTACTTGGCCTGTTGCCTAGGGAGATTAGAGTATCGGTCGA :: 3.01 log2 normalized intensity
13. TAATCAGAGCAGGAATTCTGATCTTTGACCGCCTAGGGAGATTAGAGTATCGGTCGA :: 7.96 log2 normalized intensity
14. TCTTTTCTAAGACATAACACAGGTGACCTTGCCTAGGGAGATTAGAGTATCGGTCGA :: 4.48 log2 normalized intensity
15. ACCCACCCACACCTCCCCTTTGTTTAACTTGCCTAGGGAGATTAGAGTATCGGTCGA :: 2.79 log2 normalized intensity
16. CTTTTGAGTTTCTACCATAGACCCTGTTGGGCCTAGGGAGATTAGAGTATCGGTCGA :: 0.898 log2 normalized intensity
17. TCAAGCTCAATGCAACCAGTTGGTGGGTCAGCCTAGGGAGATTAGAGTATCGGTCGA :: 1.44 log2 normalized intensity
18. CCTCCAGCTACTCACTCTTCCCAAATAGGTGCCTAGGGAGATTAGAGTATCGGTCGA :: -0.273 log2 normalized intensity
19. CCCACAGAGGGGGTTTGTTTTTTGCCCTTTGCCTAGGGAGATTAGAGTATCGGTCGA :: 5.27 log2 normalized intensity
20. AAGCTATTCACTTTTTGGCCTTTGGCTGTTGCCTAGGGAGATTAGAGTATCGGTCGA :: 3.01 log2 normalized intensity
21. GTTTTACAAACACAATGGAAGGCTGTATGTGCCTAGGGAGATTAGAGTATCGGTCGA :: 0.119 log2 normalized intensity
22. CGCCGCCTCTGCCTCTTGACCCCTTGGCCCGCCTAGGGAGATTAGAGTATCGGTCGA :: 5.9 log2 normalized intensity
23. ATTTTGGACTTTGTGCAAATGGAAAATTGTGCCTAGGGAGATTAGAGTATCGGTCGA :: 3.52 log2 normalized intensity
24. AGAGGGGGTTTGTTTTTTGCCCTTTGTACCGCCTAGGGAGATTAGAGTATCGGTCGA :: 8.63 log2 normalized intensity
25. ACTTTGACCTTGTTTTCAATGACTACCTGTGCCTAGGGAGATTAGAGTATCGGTCGA :: 2.13 log2 normalized intensity
26. AAATTATTACTCCCACCGTGTGTGCACTTTGCCTAGGGAGATTAGAGTATCGGTCGA :: 3.9 log2 normalized intensity
27. TGAGGGGACAAAGTTCGTGGAAAGTGGAAGGCCTAGGGAGATTAGAGTATCGGTCGA :: 3.11 log2 normalized intensity
28. CCTTTCTACTGCCAGCCAGGGCCACCCATCGCCTAGGGAGATTAGAGTATCGGTCGA :: 0.592 log2 normalized intensity
29. AGAGCAGGAATTCTGATCTTTGACCTCTCCGCCTAGGGAGATTAGAGTATCGGTCGA :: 8.08 log2 normalized intensity
30. CCGCCCACCCTTTTTTTTCTTTCTTTTCCCGCCTAGGGAGATTAGAGTATCGGTCGA :: 1.46 log2 normalized intensity
31. GGGTTTGTTTTTTGCCCTTTGTACCCACACGCCTAGGGAGATTAGAGTATCGGTCGA :: 8.41 log2 normalized intensity
32. AGCAATCATATATGCATTTGTCTCAGGTGGGCCTAGGGAGATTAGAGTATCGGTCGA :: 1.26 log2 normalized intensity
33. GCCAGCCAGGGCCACCCATCAGTGGACTTTGCCTAGGGAGATTAGAGTATCGGTCGA :: 7.34 log2 normalized intensity

###

Target: HNF4alpha8 (COS-7 nuclear extract) (Homo sapiens, UniProt P41235-5 1-452)
Sequence: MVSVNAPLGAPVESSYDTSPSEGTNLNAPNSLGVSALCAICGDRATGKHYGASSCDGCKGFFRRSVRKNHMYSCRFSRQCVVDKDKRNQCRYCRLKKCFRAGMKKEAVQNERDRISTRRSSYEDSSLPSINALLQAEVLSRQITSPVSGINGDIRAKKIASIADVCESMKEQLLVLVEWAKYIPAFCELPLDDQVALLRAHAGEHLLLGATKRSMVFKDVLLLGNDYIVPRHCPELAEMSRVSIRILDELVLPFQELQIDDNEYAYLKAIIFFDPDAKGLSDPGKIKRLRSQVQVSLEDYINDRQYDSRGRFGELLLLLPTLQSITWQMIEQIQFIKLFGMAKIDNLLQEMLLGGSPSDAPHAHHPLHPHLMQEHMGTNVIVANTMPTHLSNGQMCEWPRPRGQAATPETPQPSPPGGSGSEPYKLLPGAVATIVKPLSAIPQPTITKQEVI
Assay: protein-binding microarray; COS-7 nuclear extract on double-stranded Agilent 4x180k PBM; binding buffer, salt, pH and temperature not given in the material; high values mean tight binding
Conditions: chain copies: 2; label: 3' end of strand 1 on the slide; dsDNA, one strand shown
In all, about 18,000 sequences were measured (“log2 normalized intensity”: median about 0.36, highest 2% from about 7.3 on). For the sample, the highest values were picked, then their nearest neighbours and some sequences at random.
Measured binding signal, listed per entry.
readoutName: binding signal (log2 normalized intensity)

1) GTTATCTATGGAACATGGACTTTGAACCTCGCCTAGGGAGATTAGAGTATCGGTCGA :: 10.9
2) TATTTGCTCACCAGTGACCAATAATGTAATGCCTAGGGAGATTAGAGTATCGGTCGA :: 0.199
3) GCCTCCATTAATTAACCTTTGAGCTGGGTGGCCTAGGGAGATTAGAGTATCGGTCGA :: 5.22
4) CTGACCTTTGCCCCCAGCCTCTCACAGTAGGCCTAGGGAGATTAGAGTATCGGTCGA :: 7.53
5) ACCATTAACCCTACAGTCCTGCCACATCCCGCCTAGGGAGATTAGAGTATCGGTCGA :: -0.385
6) TGGACTTTGAACCTCTCTTCTTTTTCGTCTGCCTAGGGAGATTAGAGTATCGGTCGA :: 7.42
7) GGCAAGATTTTGTCCTGAGTTATTGGAAGAGCCTAGGGAGATTAGAGTATCGGTCGA :: 0.282
8) CCTTGCTATGGAGTGGACTTTGGCTTATGCGCCTAGGGAGATTAGAGTATCGGTCGA :: 7.08
9) CCTGAGCCTGGACCTTGGAATGTCAAGATTGCCTAGGGAGATTAGAGTATCGGTCGA :: 3.05
10) GAGGAAAACCAGCTCAGTGGAAATTGTCCTGCCTAGGGAGATTAGAGTATCGGTCGA :: 0.989
11) AGGGTCTTTGCAACTGTGTGTGGCCTGCACGCCTAGGGAGATTAGAGTATCGGTCGA :: 1.53
12) ATTTATCAAGATGAACTTTGACCCACCTACGCCTAGGGAGATTAGAGTATCGGTCGA :: 8.8
13) TTGTCCTTAGACAGTAACCCTTGAGCTCTGGCCTAGGGAGATTAGAGTATCGGTCGA :: 3.73
14) CTCCAACTGCTCCTCTTCAACTGATTCTTGGCCTAGGGAGATTAGAGTATCGGTCGA :: -0.845
15) AAGGACAAAGGTCATGTTTTCAAACAATGAGCCTAGGGAGATTAGAGTATCGGTCGA :: 5.49
16) AAACAATGACCTCTGCACCCTTCCCTGAGTGCCTAGGGAGATTAGAGTATCGGTCGA :: 4.47
17) GGCAGGCTTCGAAAAATGGGTCTGGGATGTGCCTAGGGAGATTAGAGTATCGGTCGA :: 0.36
18) CACCCAGAACTTTGACCGTTTGATTATTTGGCCTAGGGAGATTAGAGTATCGGTCGA :: 2.96
19) TTTTTGAGATGGAATCTTGCCCTGTCGCCCGCCTAGGGAGATTAGAGTATCGGTCGA :: 3.19
20) TTGAAAGTTTGGTGGACTTTGGCCGTGAAGGCCTAGGGAGATTAGAGTATCGGTCGA :: 7.64
21) GGTGGACTTTGGCCGTGAAGCCGTCCTGTCGCCTAGGGAGATTAGAGTATCGGTCGA :: 5.87
22) TTTCTCTTTTGACCTTTGGACTTTCACATTGCCTAGGGAGATTAGAGTATCGGTCGA :: 11
23) GTTGGGCAGAAGGTGTTTCAGATGGACCAAGCCTAGGGAGATTAGAGTATCGGTCGA :: 1.98
24) ACCTTTGACCCTTCTCTGGGAGAAAGGGAGGCCTAGGGAGATTAGAGTATCGGTCGA :: 3.86
25) GAACTCTGACCTTTGCCCCCAGCCTCTCACGCCTAGGGAGATTAGAGTATCGGTCGA :: 9.22
26) TCCCTTTGATATTTATCAAGATGAACTTTGGCCTAGGGAGATTAGAGTATCGGTCGA :: 5.51
27) TGTGCTAGATACTGGAGATATGTTGCTGGAGCCTAGGGAGATTAGAGTATCGGTCGA :: 0.67
28) ATGGAAGGACCTTGGACTGAAGACTGGAACGCCTAGGGAGATTAGAGTATCGGTCGA :: 3.17
29) GCTATCTTATCTTTGACCTTACCAGCCCACGCCTAGGGAGATTAGAGTATCGGTCGA :: 2.94
30) GGCTGCAGAGGTTTCGCAAGGACGTGACCTGCCTAGGGAGATTAGAGTATCGGTCGA :: 3.33
31) AGTCTAACTTTGGACTTTTATGTTAAGATCGCCTAGGGAGATTAGAGTATCGGTCGA :: 2.93
